Data credit: PubChem BioAssay (NCATS)

system: 3D7; assay: qHTS profiling for inhibitors of Plasmodium falciparum proliferation (AID 504749); also: nearly all actives have a fitted effect of over 60% in size; conditions: P. falciparum in erythrocytes, SYBR Green DNA, 72 h; series mostly up to 28.7 µM
Results filed as inconclusive are left out. Calls of active or inactive are those of the source. Calls follow the shape of the dose curve; as a rule, active = well fitted inhibition curve with a large enough effect; inconclusive = small, poorly fitted or top-dose-only effect; inactive = flat fitted curve, though single readings scatter.
Outcome (select one): active, inactive

> print(dat)
                    structure.smiles.string  class.assignment
1  COCC(=O)O[C@]1(CCN(C)CCCc2nc3ccccc3[nH]2)CCc2cc(F)ccc2[C@@H]1C(C)C            active
2         CCCCNc1c(C(=O)OCC)c(C)nc2c1cnn2CC          inactive
3  CCNC(=O)N1CCN(CCCC(c2ccc(F)cc2)c2ccc(F)cc2)CC1            active
4          Nc1nc(N)c2nc(-c3ccccc3)c(N)nc2n1            active

Now turn to the next compound.
input: Please indicate how the test categorized "CN=C(NC#N)NCCSCc1nc[nH]c1C" .
output: inactive
